- Tested on: PPARg:RXRa 270nM:90nM, anti-RXR (NR concentration 270 nM, RXRa partner concentration 90 nM)
- procedure details: PBM binding z-score (relative to random genomic background probes); higher = stronger binding; sequences stand for … in GC…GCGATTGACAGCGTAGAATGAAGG
property measured: PBM binding z-score

[[record]]
biosequence = "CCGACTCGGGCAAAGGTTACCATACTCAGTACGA"
recorded_measurement = 8.33

[[record]]
biosequence = "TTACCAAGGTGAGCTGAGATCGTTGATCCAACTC"
recorded_measurement = 0.4

[[record]]
biosequence = "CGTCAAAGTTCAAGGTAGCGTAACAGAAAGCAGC"
recorded_measurement = 5.04

[[record]]
biosequence = "ATCTCTAGGTAACAAGTTCAGTGAGAGAGAGGAC"
recorded_measurement = 2.15

[[record]]
biosequence = "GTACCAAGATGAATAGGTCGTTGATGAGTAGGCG"
recorded_measurement = -0.163

[[record]]
biosequence = "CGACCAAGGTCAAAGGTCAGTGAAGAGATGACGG"
recorded_measurement = 9.46

[[record]]
biosequence = "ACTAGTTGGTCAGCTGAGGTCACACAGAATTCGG"
recorded_measurement = 2.46

[[record]]
biosequence = "CCGACCGGGGCAAAGGTTACCATACTCAGTACGA"
recorded_measurement = 7.68

[[record]]
biosequence = "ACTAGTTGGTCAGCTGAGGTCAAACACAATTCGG"
recorded_measurement = 2.34

[[record]]
biosequence = "TCTGCTAGGTCAGTTGGTCCGCTAACGAGCTGCC"
recorded_measurement = 1.28

[[record]]
biosequence = "GCTTGTCGATCAAGGTTAAGAAAGACTAAGCTAA"
recorded_measurement = 0.57

[[record]]
biosequence = "TATACAGGGTCAAAGGCCAGCGTACGAATGTCGA"
recorded_measurement = 7.25

[[record]]
biosequence = "CTTCCAAGGTCAAGGTCAGTGAAAGAGACTCGAA"
recorded_measurement = 6.37

[[record]]
biosequence = "TCATATAGGTAATACAGGTGAAGGTCGGCATCTA"
recorded_measurement = 3.03

[[record]]
biosequence = "CCTATTAGTTGACCATAAGGGCCACCGAAGCTCG"
recorded_measurement = 0.219

[[record]]
biosequence = "CTCGCAAGGTCGTGCTCAGGTGAGTATACCAAAC"
recorded_measurement = 1.04

[[record]]
biosequence = "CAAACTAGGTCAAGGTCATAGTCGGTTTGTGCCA"
recorded_measurement = 7.76

[[record]]
biosequence = "CCGCCTGGGGCAAGGTTACCATAACGCACAGCCA"
recorded_measurement = 0.637

[[record]]
biosequence = "CCTGCTAGGTCAATGTTCAGCTAAAGCAGCTCGC"
recorded_measurement = 3.63

[[record]]
biosequence = "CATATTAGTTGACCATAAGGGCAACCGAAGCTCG"
recorded_measurement = 0.866

[[record]]
biosequence = "TGAATGAGGTTATGAGATCAGGGAACGTTGCAAA"
recorded_measurement = 1.96

[[record]]
biosequence = "TCTTGTAGATCAGCAGATTAAGAAAGCTGGCCAA"
recorded_measurement = 0.95

[[record]]
biosequence = "ATCGAAAGTTCGTGAGGTGAGTATACAGAAAGGC"
recorded_measurement = 0.561

[[record]]
biosequence = "TCTATTAGTTGAAGGGCAACGGACGAGTCCGTTT"
recorded_measurement = 2.19

[[record]]
biosequence = "CCCATTAGTTGACCATAAGGGCAACCGAAGCTCG"
recorded_measurement = 0.482

[[record]]
biosequence = "GCTAGTTGGTCAGTAAAAGCTCACACACCGGTCG"
recorded_measurement = -0.0391

[[record]]
biosequence = "ATCTCTCGGTAACCAAGTTCAGTGAATGCCGAAC"
recorded_measurement = 0.289

[[record]]
biosequence = "CCTAGCAGGCCCGGGTCACTCAAGCATTTCGCTT"
recorded_measurement = 0.755

[[record]]
biosequence = "GCTGCTAGGTCCACTGATGGTCAGCTAAAGCTCG"
recorded_measurement = -0.813

[[record]]
biosequence = "CCTACTGGGCCACCAGGTCATTGATATCAACGTT"
recorded_measurement = 4.3

[[record]]
biosequence = "TTACCAAGGTGAGCTGAGGTCGTTGCTCCAACTC"
recorded_measurement = 0.661

[[record]]
biosequence = "GATAGCAGGCCATTTGGGTCACTCAATGACGGGC"
recorded_measurement = 1.12

[[record]]
biosequence = "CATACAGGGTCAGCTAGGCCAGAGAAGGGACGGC"
recorded_measurement = 3.06

[[record]]
biosequence = "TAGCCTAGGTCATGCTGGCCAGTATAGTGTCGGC"
recorded_measurement = 2.15

[[record]]
biosequence = "ATCTCTAGGTAACCAAGGTCAGTGAATGCCGAAC"
recorded_measurement = 1.92

[[record]]
biosequence = "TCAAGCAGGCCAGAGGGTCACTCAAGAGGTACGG"
recorded_measurement = 2.69

[[record]]
biosequence = "TCTAGTTGGTCACGGAGGTCATACACGACGGGTA"
recorded_measurement = 3.93

[[record]]
biosequence = "ATCTCTAGGTAAGGCTCAGTTCAGTGAAGAACGC"
recorded_measurement = 0.513

[[record]]
biosequence = "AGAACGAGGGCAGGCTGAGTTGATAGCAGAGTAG"
recorded_measurement = 0.432

[[record]]
biosequence = "GCGATTGGGGCAAAGCAGGTTACCATAAGGTTGG"
recorded_measurement = 0.405

[[record]]
biosequence = "AGAATGAGGTTAAGATCCGGGAAACAGAATACAT"
recorded_measurement = 1.97

[[record]]
biosequence = "CCAGACAGGTGAAAGGTAACTAAGTCTGGTACGC"
recorded_measurement = 6.03

[[record]]
biosequence = "ATCTCTAGGTAAAAGTTCAGTGAGTCCCGAGGAT"
recorded_measurement = 7.98

[[record]]
biosequence = "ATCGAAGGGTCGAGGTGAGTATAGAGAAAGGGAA"
recorded_measurement = 1.28

[[record]]
biosequence = "GCTGCTAGGTTAGGTTGGTCAGCTAACGGGTACG"
recorded_measurement = -0.464

[[record]]
biosequence = "TCTATTAGTTGATTAGGGCAACTGAAACAGCGGA"
recorded_measurement = 1.87

[[record]]
biosequence = "GCTGATAGGTCAGGTTGGTCAGCTAACGGGTACG"
recorded_measurement = 1.4

[[record]]
biosequence = "TGTCAAAGTTCAAAAGTAACGTAAGTATCCACAC"
recorded_measurement = 6.63

[[record]]
biosequence = "TCTAGTTGATCACGGAGGTCACACACGACGGGTA"
recorded_measurement = 3.19

[[record]]
biosequence = "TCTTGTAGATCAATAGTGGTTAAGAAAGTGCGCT"
recorded_measurement = 1.4

[[record]]
biosequence = "CGTCCAAGGTCATAGGAGGTCAGTGAGGACAGAT"
recorded_measurement = 5.89

